# Target Entity: panel of more than 300 wild-type and mutant kinases (313 kinase panel) (Homo sapiens, UniProt Q8N4C8)
# Sequence (Q8N4C8 whole entry, change not shown): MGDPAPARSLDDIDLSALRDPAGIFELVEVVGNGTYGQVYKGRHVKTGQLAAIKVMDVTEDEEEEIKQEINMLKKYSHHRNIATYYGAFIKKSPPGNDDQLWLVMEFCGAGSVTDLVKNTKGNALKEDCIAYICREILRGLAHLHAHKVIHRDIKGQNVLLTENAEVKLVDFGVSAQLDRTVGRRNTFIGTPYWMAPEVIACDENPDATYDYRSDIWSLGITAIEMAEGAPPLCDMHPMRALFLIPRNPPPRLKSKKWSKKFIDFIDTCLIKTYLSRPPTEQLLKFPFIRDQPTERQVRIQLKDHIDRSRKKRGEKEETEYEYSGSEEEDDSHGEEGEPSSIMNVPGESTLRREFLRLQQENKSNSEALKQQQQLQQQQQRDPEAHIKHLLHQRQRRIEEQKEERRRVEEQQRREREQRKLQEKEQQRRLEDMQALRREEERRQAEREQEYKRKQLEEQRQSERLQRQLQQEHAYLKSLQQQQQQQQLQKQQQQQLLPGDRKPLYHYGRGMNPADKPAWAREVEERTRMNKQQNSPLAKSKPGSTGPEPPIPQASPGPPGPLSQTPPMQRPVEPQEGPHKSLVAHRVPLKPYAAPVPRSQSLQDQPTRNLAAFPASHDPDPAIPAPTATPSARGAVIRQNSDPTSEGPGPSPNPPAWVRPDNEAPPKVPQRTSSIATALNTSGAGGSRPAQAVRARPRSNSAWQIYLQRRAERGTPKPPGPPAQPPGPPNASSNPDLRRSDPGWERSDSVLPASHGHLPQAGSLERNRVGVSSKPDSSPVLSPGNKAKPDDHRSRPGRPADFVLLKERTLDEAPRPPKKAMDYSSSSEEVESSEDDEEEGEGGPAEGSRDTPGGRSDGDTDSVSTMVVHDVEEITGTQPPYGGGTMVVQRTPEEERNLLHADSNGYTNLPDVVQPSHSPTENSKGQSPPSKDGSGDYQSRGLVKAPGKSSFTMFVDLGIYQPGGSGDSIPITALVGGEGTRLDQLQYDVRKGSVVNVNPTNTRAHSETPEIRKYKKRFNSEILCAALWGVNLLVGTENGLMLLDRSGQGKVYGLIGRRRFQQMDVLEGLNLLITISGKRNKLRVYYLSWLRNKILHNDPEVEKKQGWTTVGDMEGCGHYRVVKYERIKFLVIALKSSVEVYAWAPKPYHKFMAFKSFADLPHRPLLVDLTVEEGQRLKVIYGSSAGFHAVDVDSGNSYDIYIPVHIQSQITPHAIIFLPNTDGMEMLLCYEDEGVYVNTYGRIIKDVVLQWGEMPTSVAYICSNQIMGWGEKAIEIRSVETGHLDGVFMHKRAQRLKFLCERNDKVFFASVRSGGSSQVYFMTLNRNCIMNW
# Assay Summary: Kinase profiling in a biochemical assay panel (mobility shift assays and ELISA), %-inhibition at 1 μM; selectivity entropy
# Test Conditions: kinase MINK; 1 μM
Threshold rule: %-inhibition of MINK greater than or equal to 10% is rule met; below that, rule not met.

[
  {
    "Structure Smiles": "COc1cc2c(Nc3ccc(Br)cc3F)ncnc2cc1OCC1CCN(C)CC1",
    "Group Label": "rule met"
  }
]

*Q* Assess whether reported %-inhibition of MINK for "C[C@@H](Oc1cc(-c2cnn(C3CCNCC3)c2)cnc1N)c1c(Cl)ccc(F)c1Cl" sits at 10% or higher.
*A* rule not met

*Q* Assess whether reported %-inhibition of MINK for "O=S(=O)(c1cccc2cnccc12)N1CCCNCC1" sits at 10% or higher.
*A* rule not met

*Q* Assess whether reported %-inhibition of MINK for "CO[C@H]1C[C@@H]2CC[C@@H](C)[C@@](O)(O2)C(=O)C(=O)N2CCCC[C@H]2C(=O)O[C@H]([C@H](C)C[C@@H]2CC[C@@H](OCCO)[C@H](OC)C2)CC(=O)[C@H](C)/C=C(\C)[C@@H](O)[C@@H](OC)C(=O)[C@H](C)C[C@H](C)/C=C/C=C/C=C/1C" sits at 10% or higher.
*A* rule not met

*Q* Assess whether reported %-inhibition of MINK for "CNC(=O)c1cc(Oc2ccc(NC(=O)Nc3ccc(Cl)c(C(F)(F)F)c3)c(F)c2)ccn1" sits at 10% or higher.
*A* rule met

*Q* Assess whether reported %-inhibition of MINK for "COc1cc(Nc2c(C#N)cnc3cc(OCCCN4CCN(C)CC4)c(OC)cc23)c(Cl)cc1Cl" sits at 10% or higher.
*A* rule met

---

# Target Entity: panel of more than 300 wild-type and mutant kinases (313 kinase panel) (Homo sapiens, UniProt Q8IWQ3)
# Sequence (Q8IWQ3 1-736): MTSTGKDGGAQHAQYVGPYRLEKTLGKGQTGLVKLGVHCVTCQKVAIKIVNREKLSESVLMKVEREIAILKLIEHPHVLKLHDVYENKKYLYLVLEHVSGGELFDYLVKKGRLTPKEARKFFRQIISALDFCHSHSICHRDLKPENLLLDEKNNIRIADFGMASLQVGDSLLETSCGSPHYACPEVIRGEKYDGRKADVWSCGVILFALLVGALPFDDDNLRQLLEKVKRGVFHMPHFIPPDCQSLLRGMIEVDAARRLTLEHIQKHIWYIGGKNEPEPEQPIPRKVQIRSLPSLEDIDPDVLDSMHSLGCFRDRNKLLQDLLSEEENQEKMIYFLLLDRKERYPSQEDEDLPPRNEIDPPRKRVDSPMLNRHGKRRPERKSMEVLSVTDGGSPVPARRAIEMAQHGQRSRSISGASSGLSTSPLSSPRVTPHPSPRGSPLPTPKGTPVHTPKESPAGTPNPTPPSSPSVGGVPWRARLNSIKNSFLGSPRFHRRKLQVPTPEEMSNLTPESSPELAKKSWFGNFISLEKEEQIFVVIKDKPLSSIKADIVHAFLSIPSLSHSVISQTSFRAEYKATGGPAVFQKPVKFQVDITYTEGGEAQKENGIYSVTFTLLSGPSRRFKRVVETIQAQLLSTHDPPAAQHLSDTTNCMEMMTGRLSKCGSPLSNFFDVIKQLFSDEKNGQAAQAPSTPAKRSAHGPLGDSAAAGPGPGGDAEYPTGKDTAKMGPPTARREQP
# Assay Summary: Kinase profiling in a biochemical assay panel (mobility shift assays and ELISA), %-inhibition at 1 μM; selectivity entropy
# Test Conditions: kinase BRSK2; 1 μM compound
Measured %-inhibition, BRSK2, listed per entry.
// note: answer is a bare numeric in %

See these solved cases before continuing.
[
  {
    "Molecule": "COc1cc(Nc2c(C#N)cnc3cc(OCCCN4CCN(C)CC4)c(OC)cc23)c(Cl)cc1Cl [bosutinib]",
    "Unit Info": "%",
    "%-inhibition, BRSK2": -12
  },
  {
    "Molecule": "C[C@@H](Oc1cc(-c2cnn(C3CCNCC3)c2)cnc1N)c1c(Cl)ccc(F)c1Cl [crizotinib]",
    "Unit Info": "%",
    "%-inhibition, BRSK2": 8
  }
]

*Q* Please report %-inhibition, BRSK2 for the following molecule: CO[C@H]1C[C@@H]2CC[C@@H](C)[C@@](O)(O2)C(=O)C(=O)N2CCCC[C@H]2C(=O)O[C@H]([C@H](C)C[C@@H]2CC[C@@H](OC(=O)C(C)(CO)CO)[C@H](OC)C2)CC(=O)[C@H](C)/C=C(\C)[C@@H](O)[C@@H](OC)C(=O)[C@H](C)C[C@H](C)/C=C/C=C/C=C/1C [temsirolimus]
*A* -9
